Entry source: ChEMBL document CHEMBL5149991

Recorded below: Kd, system Beta-1 adrenergic receptor (Homo sapiens, UniProt P08588).
Numeric only. Scale: nM

smilesRepr: CCCCCNC(=O)/N=C(\N)NCCCc1nnc(N)s1.O=C(O)C(F)(F)F.O=C(O)C(F)(F)F
units: nM
Kd: 0.075

# Kd lookup, item C[C@@H](NC(=O)/N=C(\N)NCCCc1ncn[nH]1)c1ccccc1
0.075

---

- experimentalTarget: Muscarinic acetylcholine receptor M3 (Homo sapiens, UniProt P20309)
- Sequence (P20309 whole entry): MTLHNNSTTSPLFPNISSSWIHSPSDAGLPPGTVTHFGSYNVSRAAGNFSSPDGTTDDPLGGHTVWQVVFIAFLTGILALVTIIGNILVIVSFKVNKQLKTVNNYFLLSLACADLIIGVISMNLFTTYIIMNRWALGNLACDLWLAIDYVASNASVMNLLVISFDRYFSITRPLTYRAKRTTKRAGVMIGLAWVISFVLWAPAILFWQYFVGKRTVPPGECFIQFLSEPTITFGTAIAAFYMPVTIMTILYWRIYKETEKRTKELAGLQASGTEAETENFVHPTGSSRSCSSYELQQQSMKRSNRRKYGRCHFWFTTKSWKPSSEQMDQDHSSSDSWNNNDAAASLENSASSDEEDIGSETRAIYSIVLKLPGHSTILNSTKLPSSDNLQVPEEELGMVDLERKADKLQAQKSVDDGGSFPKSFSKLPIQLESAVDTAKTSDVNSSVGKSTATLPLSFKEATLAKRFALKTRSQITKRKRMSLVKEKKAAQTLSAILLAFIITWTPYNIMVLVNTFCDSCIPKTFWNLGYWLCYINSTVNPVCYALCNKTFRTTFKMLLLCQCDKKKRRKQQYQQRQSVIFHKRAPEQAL
parameter: pKd
Note on pKd: it is the negative log10 of concentration, concentration in mol/L.

# count of solved cases: 2
smilesRepr: N/C(=N\C(=O)NCc1ccccc1)NCCCc1nnc(N)s1
experimentalTarget: Muscarinic acetylcholine receptor M3 (Homo sapiens, UniProt P20309)
parameter: pKd
experimentalResult: 9.92

smilesRepr: C[C@@H](NC(=O)/N=C(\N)NCCCc1ncn[nH]1)c1ccccc1
experimentalTarget: Muscarinic acetylcholine receptor M3 (Homo sapiens, UniProt P20309)
parameter: pKd
experimentalResult: 9.92

Switching to the query record.
Which pKd reading was recorded for the molecule CCCCCNC(=O)/N=C(\N)NCCCc1nnc(N)s1.O=C(O)C(F)(F)F.O=C(O)C(F)(F)F ?
9.92
